Assay Info: Single dose pharmacokinetics in CD1 mice (IV, IP, PO), plasma LC-MS/MS
Assay type: in vivo, mouse
Conditions: male, CD1, mouse, in vivo, ip, 20 mg/kg
Protocol: For single dose pharmacokinetic studies, plasma samples (40 μL) were mixed with 200 μL of a water-methanol mixture 1:9, v/v containing the internal standard elacridar at 400 ng/mL. […] The lower limit of quantitation (LLOQ) in plasma was 50 ng/mL. Pharmacokinetic parameters were calculated from mean concentration-time data using non-compartmental methods in Phoenix WinNonlin version 8.3 (Certara, Princeton, NJ). […] The AUClast was calculated using the log-linear trapezoidal method. […]
Assay Metric: Tmax (min)
Reply numerically in min, unit not repeated.

Which Tmax value belongs to `N#Cc1ccc(/C=C2/C(=O)/C(=C/c3ccc(C#N)cc3)C23CCNCC3)cc1` ? 30

Cited source for all entries: paper PMC10266688
